Target: E3 ubiquitin-protein ligase TRIM33 (Homo sapiens)
Sequence (Q9UPN9 whole entry): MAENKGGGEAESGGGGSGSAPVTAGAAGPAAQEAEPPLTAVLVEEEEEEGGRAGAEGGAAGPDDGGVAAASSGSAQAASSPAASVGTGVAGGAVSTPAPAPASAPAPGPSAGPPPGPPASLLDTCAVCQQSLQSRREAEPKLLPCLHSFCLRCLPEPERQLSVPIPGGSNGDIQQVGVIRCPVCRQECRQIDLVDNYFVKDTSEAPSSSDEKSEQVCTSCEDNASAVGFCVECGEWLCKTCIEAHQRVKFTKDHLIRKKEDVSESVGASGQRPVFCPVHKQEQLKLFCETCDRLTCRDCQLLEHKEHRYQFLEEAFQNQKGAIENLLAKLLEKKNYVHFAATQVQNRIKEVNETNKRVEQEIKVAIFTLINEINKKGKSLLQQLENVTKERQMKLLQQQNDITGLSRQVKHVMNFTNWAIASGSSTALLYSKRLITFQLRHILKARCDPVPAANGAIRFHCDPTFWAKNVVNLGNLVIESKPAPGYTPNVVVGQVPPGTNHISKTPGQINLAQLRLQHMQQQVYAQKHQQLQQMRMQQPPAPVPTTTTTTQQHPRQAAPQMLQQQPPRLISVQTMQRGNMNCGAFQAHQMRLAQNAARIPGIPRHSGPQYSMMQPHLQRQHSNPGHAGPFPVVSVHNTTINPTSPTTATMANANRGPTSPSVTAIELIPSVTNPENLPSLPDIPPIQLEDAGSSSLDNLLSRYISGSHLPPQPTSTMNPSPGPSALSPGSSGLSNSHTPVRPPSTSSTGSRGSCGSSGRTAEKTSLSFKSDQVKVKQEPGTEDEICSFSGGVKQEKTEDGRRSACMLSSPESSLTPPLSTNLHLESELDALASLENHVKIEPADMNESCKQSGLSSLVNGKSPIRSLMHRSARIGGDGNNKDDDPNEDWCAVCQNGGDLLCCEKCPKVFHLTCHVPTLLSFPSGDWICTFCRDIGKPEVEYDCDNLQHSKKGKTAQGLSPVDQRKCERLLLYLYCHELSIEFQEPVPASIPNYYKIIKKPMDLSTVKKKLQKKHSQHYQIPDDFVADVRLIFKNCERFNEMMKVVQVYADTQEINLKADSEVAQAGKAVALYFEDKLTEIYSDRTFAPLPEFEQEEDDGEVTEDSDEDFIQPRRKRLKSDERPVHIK
Experiment: TRIM33(PHD,Bromo.) DiscoverX BROMOscan
quantity-name: Kd (µM)

{"columns": ["compound", "target-or-test-system", "quantity-name", "reported-measurement"],
 "data": [
  ["COCc1nc2cnc3cc(-c4c(C)noc4C)c(OC[C@H]4CCNC4)cc3c2n1[C@H](C)c1ccccc1 [GSK778]", "E3 ubiquitin-protein ligase TRIM33 (Homo sapiens)", "Kd", 30]
]}

* * *

Target: Peregrin (Homo sapiens)
Sequence (P55201 whole entry): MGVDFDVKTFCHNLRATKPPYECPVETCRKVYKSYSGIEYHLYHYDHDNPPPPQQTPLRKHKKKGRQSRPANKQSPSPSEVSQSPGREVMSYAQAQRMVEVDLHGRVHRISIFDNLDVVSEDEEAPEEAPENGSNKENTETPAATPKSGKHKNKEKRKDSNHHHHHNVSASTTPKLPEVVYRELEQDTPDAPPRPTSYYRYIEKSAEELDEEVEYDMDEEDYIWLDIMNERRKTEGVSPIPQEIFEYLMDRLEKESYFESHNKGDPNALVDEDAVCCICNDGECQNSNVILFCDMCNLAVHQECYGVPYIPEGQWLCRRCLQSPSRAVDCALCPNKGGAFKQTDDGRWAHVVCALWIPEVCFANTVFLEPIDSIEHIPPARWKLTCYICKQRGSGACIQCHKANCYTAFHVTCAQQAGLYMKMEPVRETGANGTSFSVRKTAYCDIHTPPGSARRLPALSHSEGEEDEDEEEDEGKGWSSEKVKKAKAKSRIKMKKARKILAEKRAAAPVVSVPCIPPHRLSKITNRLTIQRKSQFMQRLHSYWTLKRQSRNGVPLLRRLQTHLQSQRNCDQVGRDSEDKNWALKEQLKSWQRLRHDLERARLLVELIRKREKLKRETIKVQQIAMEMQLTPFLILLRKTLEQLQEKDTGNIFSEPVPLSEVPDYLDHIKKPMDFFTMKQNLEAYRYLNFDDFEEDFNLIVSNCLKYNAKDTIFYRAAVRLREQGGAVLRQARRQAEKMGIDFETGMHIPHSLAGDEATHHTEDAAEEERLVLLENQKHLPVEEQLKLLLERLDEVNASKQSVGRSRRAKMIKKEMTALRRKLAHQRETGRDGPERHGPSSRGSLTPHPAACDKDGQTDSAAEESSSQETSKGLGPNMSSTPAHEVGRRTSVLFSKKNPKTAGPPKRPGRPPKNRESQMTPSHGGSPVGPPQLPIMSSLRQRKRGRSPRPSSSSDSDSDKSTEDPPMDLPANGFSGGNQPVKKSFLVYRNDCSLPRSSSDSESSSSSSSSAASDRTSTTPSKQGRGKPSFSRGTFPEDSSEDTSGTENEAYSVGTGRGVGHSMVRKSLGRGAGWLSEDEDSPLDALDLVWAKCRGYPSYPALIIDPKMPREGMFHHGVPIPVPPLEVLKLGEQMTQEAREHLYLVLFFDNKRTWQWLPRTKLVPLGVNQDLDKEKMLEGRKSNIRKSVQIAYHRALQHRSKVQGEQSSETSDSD
Experiment: BRPF1 DiscoverX BROMOscan
pKd: −log10 of the molar value.

{"columns": ["chemical-structure", "target-or-test-system", "pKd"],
 "data": [
  ["COCc1nc2cnc3cc(-c4c(C)noc4C)c(OC[C@H]4CCNC4)cc3c2n1[C@H](C)c1ccccc1", "Peregrin (Homo sapiens)", 4.82]
]}

* * *

Molecular target: 5-hydroxytryptamine receptor 3A (Homo sapiens)
Sequence (P46098 whole entry): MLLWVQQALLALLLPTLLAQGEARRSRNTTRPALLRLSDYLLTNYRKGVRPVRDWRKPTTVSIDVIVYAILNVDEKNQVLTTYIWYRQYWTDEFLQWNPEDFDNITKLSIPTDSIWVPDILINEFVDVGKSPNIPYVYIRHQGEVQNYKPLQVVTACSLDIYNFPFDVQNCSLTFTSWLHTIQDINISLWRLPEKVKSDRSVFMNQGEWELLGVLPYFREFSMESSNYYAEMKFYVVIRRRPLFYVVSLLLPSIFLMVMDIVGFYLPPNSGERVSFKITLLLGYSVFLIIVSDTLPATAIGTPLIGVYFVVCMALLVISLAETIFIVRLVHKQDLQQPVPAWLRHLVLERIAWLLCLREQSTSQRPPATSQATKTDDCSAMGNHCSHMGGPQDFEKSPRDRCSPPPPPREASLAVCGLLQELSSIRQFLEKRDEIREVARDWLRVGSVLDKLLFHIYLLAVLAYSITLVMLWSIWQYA
Assay: Cross screening panel
quantity-name: EC50

{"columns": ["compound", "reported-measurement"],
 "data": [
  ["COCc1nc2cnc3cc(-c4c(C)noc4C)c(OC[C@H]4CCNC4)cc3c2n1[C@H](C)c1ccccc1 [GSK778]", "> 50.1 µM"]
]}

* * *

Target: Potassium voltage-gated channel subfamily A member 5 (Homo sapiens)
Sequence (P22460 whole entry): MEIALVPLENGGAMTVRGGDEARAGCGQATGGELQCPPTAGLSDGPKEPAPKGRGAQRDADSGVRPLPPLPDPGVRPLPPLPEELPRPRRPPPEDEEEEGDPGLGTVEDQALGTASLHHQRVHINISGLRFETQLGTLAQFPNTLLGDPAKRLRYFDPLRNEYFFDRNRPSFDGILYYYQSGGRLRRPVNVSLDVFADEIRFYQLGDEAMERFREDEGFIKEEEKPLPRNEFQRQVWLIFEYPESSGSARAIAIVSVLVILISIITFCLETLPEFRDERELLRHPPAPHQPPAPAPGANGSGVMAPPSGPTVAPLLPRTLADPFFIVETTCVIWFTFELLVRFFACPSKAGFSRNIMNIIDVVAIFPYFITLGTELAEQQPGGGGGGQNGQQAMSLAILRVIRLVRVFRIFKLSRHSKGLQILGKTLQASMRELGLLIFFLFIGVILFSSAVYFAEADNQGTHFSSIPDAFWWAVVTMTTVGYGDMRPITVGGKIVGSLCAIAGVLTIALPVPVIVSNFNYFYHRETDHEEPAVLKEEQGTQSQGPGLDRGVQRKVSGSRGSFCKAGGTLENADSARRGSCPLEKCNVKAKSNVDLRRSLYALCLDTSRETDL
quantity-name: IC50

{"columns": ["molecule", "target-or-test-system", "reported-measurement"],
 "data": [
  ["COCc1nc2cnc3cc(-c4c(C)noc4C)c(OC[C@H]4CCNC4)cc3c2n1[C@H](C)c1ccccc1 [GSK778]", "Potassium voltage-gated channel subfamily A member 5 (Homo sapiens)", "> 50.1 µM"]
]}

* * *

Target: Voltage-gated potassium channel, IKs; KCNQ1(Kv7.1)/KCNE1(MinK) (Homo sapiens, UniProt P15382+P51787)
Assay: Cross screening panel

{"columns": ["chemical-structure", "IC50"],
 "data": [
  ["COCc1nc2cnc3cc(-c4c(C)noc4C)c(OC[C@H]4CCNC4)cc3c2n1[C@H](C)c1ccccc1", "> 25.1 µM"]
]}

* * *

Biological target: Transcription intermediary factor 1-alpha (Homo sapiens)
Assay: TRIM24(PHD,Bromo.) DiscoverX BROMOscan

{"columns": ["compound", "Kd / µM"],
 "data": [
  ["COCc1nc2cnc3cc(-c4c(C)noc4C)c(OC[C@H]4CCNC4)cc3c2n1[C@H](C)c1ccccc1 [GSK778]", 30]
]}

* * *

Molecular target: 5-hydroxytryptamine receptor 1B (Homo sapiens, UniProt P28222)
Sequence (P28222 whole entry): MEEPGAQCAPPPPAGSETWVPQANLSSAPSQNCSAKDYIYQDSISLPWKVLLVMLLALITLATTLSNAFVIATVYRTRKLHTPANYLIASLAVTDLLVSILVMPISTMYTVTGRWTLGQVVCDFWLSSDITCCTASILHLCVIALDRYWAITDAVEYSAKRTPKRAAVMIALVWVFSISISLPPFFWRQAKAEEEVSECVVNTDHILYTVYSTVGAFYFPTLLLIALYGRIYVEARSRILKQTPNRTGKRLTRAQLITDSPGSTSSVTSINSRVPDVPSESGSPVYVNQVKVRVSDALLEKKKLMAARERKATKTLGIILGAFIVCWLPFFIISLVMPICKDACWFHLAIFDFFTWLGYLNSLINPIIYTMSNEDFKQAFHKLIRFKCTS
pIC50: −log10 of the molar value.
quantity-name: pIC50

{"columns": ["compound", "reported-measurement"],
 "data": [
  ["COCc1nc2cnc3cc(-c4c(C)noc4C)c(OC[C@H]4CCNC4)cc3c2n1[C@H](C)c1ccccc1 [GSK778]", "< 4.00"]
]}

* * *

Target: Beta-2 adrenergic receptor (Homo sapiens)
Sequence (P07550 whole entry): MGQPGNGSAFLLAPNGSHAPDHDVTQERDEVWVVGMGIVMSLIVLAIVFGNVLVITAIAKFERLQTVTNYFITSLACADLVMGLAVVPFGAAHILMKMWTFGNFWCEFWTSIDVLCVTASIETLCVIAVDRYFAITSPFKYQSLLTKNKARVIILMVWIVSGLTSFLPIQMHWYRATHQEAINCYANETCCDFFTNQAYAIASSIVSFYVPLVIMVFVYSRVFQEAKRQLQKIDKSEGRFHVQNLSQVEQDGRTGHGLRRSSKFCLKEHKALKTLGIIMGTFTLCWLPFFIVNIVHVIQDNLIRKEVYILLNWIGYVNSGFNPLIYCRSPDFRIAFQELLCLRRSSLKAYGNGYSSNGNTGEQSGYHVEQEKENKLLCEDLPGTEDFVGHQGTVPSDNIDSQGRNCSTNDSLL

{"columns": ["chemical-structure", "IC50"],
 "data": [
  ["COCc1nc2cnc3cc(-c4c(C)noc4C)c(OC[C@H]4CCNC4)cc3c2n1[C@H](C)c1ccccc1", "> 100 µM"]
]}

* * *

Target: Histamine H1 receptor (Homo sapiens, UniProt P35367)
Sequence (P35367 whole entry): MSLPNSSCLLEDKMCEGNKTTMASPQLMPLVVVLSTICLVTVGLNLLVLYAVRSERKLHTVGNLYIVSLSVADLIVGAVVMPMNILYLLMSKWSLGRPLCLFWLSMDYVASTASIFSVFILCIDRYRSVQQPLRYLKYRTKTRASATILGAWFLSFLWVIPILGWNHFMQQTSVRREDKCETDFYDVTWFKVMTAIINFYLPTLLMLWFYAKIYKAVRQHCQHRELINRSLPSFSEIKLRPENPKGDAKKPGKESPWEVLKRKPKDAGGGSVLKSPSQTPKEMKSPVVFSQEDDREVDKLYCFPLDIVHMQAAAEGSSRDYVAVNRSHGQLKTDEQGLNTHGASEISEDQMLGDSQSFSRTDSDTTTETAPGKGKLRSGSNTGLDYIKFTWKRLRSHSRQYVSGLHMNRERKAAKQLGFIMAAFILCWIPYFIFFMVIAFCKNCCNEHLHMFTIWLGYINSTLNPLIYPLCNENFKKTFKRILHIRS

{"columns": ["compound", "IC50"],
 "data": [
  ["COCc1nc2cnc3cc(-c4c(C)noc4C)c(OC[C@H]4CCNC4)cc3c2n1[C@H](C)c1ccccc1 [GSK778]", "> 25.1 µM"]
]}
